# Test name: Prevention of the growth of algae in water by Compound 1
# Assay type: cell-based
# Reported conditions: algal aquarium, pH 6.8; start 6.14 mg per liter, day 15; read-out: Percent Total Potential Positive Chlorine Remaining
Quantity: remaining at 360 h (%)
Numbers only here, please. The scale is %.

### Prompt Name the recorded remaining at 360 h for CC1(C)C(=O)N(Cl)C(C)(C)N1Cl [Compound 1] .
### Response 44.8

* * *

# Test name: Prevention of the growth of algae in water by Compound 1
# Type: cell-based
# Reported conditions: algal aquarium, pH 6.8; start 6.14 mg per liter, day 18; read-out: Percent Total Potential Positive Chlorine Remaining
Quantity: remaining at 432 h (%)
Numbers only here, please. The scale is %.

### Prompt Name the recorded remaining at 432 h for CC1(C)C(=O)N(Cl)C(C)(C)N1Cl [Compound 1] .
### Response 41.9

* * *

# Test name: Laboratory stability in halogen demand-free water (DFW), iodometric titration
# Format: physicochemical
# Reported conditions: demand-free water, pH 7
Quantity: remaining at 672 h (%)
Numbers only here, please. The scale is %.

### Prompt Name the recorded remaining at 672 h for `CC1(C)C(=O)N(Cl)C(C)(C)N1Br` .
### Response 45.9

### Prompt Next entry: `CC1(C)C(=O)N(Cl)C(C)(C)N1Cl`
### Response 90.6

* * *

# Test name: Laboratory stability in halogen demand-free water (DFW), iodometric titration
# Format: physicochemical
# Reported conditions: demand-free water, pH 9.5
Task for the reader: assign each of the following compounds its reported remaining at 23.52 h.
Numbers only here, please. The scale is %.

### Prompt Name the recorded remaining at 23.52 h for CC1(C)C(=O)N(Cl)C(C)(C)N1Br [Compound 5] .
### Response 96.3

### Prompt Next entry: CC1(C)C(=O)N(Cl)C(C)(C)N1Cl [Compound 1]
### Response 96.5

### Prompt Next entry: CC1(C)C(=O)N(Br)C(C)(C)N1Br [Compound 4]
### Response 91.4

* * *

# Test name: Laboratory stability in halogen demand-free water (DFW), iodometric titration
# Format: physicochemical
# Reported conditions: demand-free water, pH 4.5
Quantity: remaining at 504 h (%)
Numbers only here, please. The scale is %.

### Prompt Name the recorded remaining at 504 h for CC1(C)C(=O)N(Cl)C(C)(C)N1Cl [Compound 1] .
### Response 40.4

* * *

# Test name: Laboratory stability in halogen demand-free water (DFW), iodometric titration
# Assay type: physicochemical
# Reported conditions: demand-free water, pH 4.5
Quantity: remaining at 95.76 h (%)
Numbers only here, please. The scale is %.

### Prompt Name the recorded remaining at 95.76 h for `CC1(C)C(=O)N(Cl)C(C)(C)N1Cl` .
### Response 88.9

* * *

# Test name: Prevention of the growth of algae in water by Compound 1
# Format: cell-based
# Reported conditions: algal aquarium, pH 6.8; start 6.14 mg per liter, day 11; read-out: Percent Total Potential Positive Chlorine Remaining
Quantity: remaining at 264 h (%)
Numbers only here, please. The scale is %.

### Prompt Name the recorded remaining at 264 h for `CC1(C)C(=O)N(Cl)C(C)(C)N1Cl` .
### Response 45.8

* * *

Task for the reader: assign each of the following molecules its reported remaining at 4 h.
# Test name: Stability in synthetic halogen demand water (SDW)
# Assay type: physicochemical
# Reported conditions: synthetic halogen demand water; SDW, 4° C., pH 9.5, 4.0 hrs; read-out: Percent Halogen Remaining
# Description: A synthetic halogen demand water (SDW) was prepared by mixing the following substances with demand-free water (DFW): 375 milligrams per liter of each of the inorganic salts sodium chloride, potassium chloride, calcium chloride, and magnesium chloride; 50 milligrams per liter of Bentonite clay; 30 milligrams per liter of humic acid; 0.01 percent final concentration of heat-treated horse serum; and 5×10^5 cells per milliliter of heat-killed Saccharomyces cerevisiae yeast cells. […]
Numbers only here, please. The scale is %.

### Prompt Name the recorded remaining at 4 h for `CC1(C)C(=O)N(Cl)C(C)(C)N1Cl` .
### Response 88.8

### Prompt Next entry: `CC1(C)C(=O)N(Cl)C(C)(C)N1Br`
### Response 41.9

* * *

# Test name: Laboratory stability in halogen demand-free water (DFW), iodometric titration
# Type: physicochemical
# Reported conditions: demand-free water, pH 4.5
Quantity: remaining at 23.52 h (%)
Numbers only here, please. The scale is %.

### Prompt Name the recorded remaining at 23.52 h for `CC1(C)C(=O)N(Cl)C(C)(C)N1Cl` .
### Response 100

* * *

# Test name: Stability in synthetic halogen demand water (SDW)
# Format: physicochemical
# Reported conditions: synthetic halogen demand water; SDW, 4° C., pH 9.5, 72.0 hrs; read-out: Percent Halogen Remaining
Quantity: remaining at 72 h (%)
Numbers only here, please. The scale is %.

### Prompt Name the recorded remaining at 72 h for CC1(C)NC(=O)C(C)(C)N1Cl [Compound 3] .
### Response 94.1

* * *

# Test name: Prevention of the growth of algae in water by Compound 1
# Type: cell-based
# Reported conditions: algal aquarium, pH 6.8; start 6.14 mg per liter, day 1; read-out: Percent Total Potential Positive Chlorine Remaining
Quantity: remaining at 24 h (%)
Numbers only here, please. The scale is %.

### Prompt Name the recorded remaining at 24 h for `CC1(C)C(=O)N(Cl)C(C)(C)N1Cl` .
### Response 70.1

* * *

# Test name: Laboratory stability in halogen demand-free water (DFW), iodometric titration
# Type: physicochemical
# Reported conditions: demand-free water, pH 9.5
Quantity: remaining at 72.24 h (%)
Numbers only here, please. The scale is %.

### Prompt Name the recorded remaining at 72.24 h for CC1(C)C(=O)N(Br)C(C)(C)N1Br [Compound 4] .
### Response 71

* * *

# Test name: Stability in synthetic halogen demand water (SDW)
# Format: physicochemical
# Reported conditions: synthetic halogen demand water; SDW, 4° C., pH 9.5, 0.167 hrs; read-out: Percent Halogen Remaining
# Method: A synthetic halogen demand water (SDW) was prepared by mixing the following substances with demand-free water (DFW): 375 milligrams per liter of each of the inorganic salts sodium chloride, potassium chloride, calcium chloride, and magnesium chloride; 50 milligrams per liter of Bentonite clay; 30 milligrams per liter of humic acid; 0.01 percent final concentration of heat-treated horse serum; and 5×10^5 cells per milliliter of heat-killed Saccharomyces cerevisiae yeast cells. […]
Quantity: remaining at 0.167 h (%)
Numbers only here, please. The scale is %.

### Prompt Name the recorded remaining at 0.167 h for CC1(C)C(=O)N(Cl)C(C)(C)N1Br [Compound 5] .
### Response 49.9

* * *

# Test name: Laboratory stability in halogen demand-free water (DFW), iodometric titration
# Type: physicochemical
# Reported conditions: demand-free water, pH 4.5
Quantity: remaining at 672 h (%)
Numbers only here, please. The scale is %.

### Prompt Name the recorded remaining at 672 h for `CC1(C)C(=O)N(Cl)C(C)(C)N1Cl` .
### Response 30.7

* * *

# Test name: Prevention of the growth of algae in water by Compound 1
# Format: cell-based
# Reported conditions: algal aquarium, pH 6.8; start 6.14 mg per liter, day 5; read-out: Percent Total Potential Positive Chlorine Remaining
Quantity: remaining at 120 h (%)
Numbers only here, please. The scale is %.

### Prompt Name the recorded remaining at 120 h for CC1(C)C(=O)N(Cl)C(C)(C)N1Cl [Compound 1] .
### Response 52.1

* * *

# Test name: Stability in demand-free water exposed to direct sunlight
# Format: physicochemical
# Reported conditions: demand-free water, direct sunlight, pH 7
Quantity: remaining at 5 h (%)
Numbers only here, please. The scale is %.

### Prompt Name the recorded remaining at 5 h for CC1(C)C(=O)N(Cl)C(C)(C)N1Br [Compound 5] .
### Response 45.7

### Prompt Next entry: CC1(C)C(=O)N(Cl)C(C)(C)N1Cl [Compound 1]
### Response 74.8

* * *

Task for the reader: assign each of the following compounds its reported remaining at 168 h.
# Test name: Laboratory stability in halogen demand-free water (DFW), iodometric titration
# Assay type: physicochemical
# Reported conditions: demand-free water, pH 9.5
Numbers only here, please. The scale is %.

### Prompt Name the recorded remaining at 168 h for CC1(C)C(=O)N(Br)C(C)(C)N1Br [Compound 4] .
### Response 36

### Prompt Next entry: CC1(C)C(=O)N(Cl)C(C)(C)N1Br [Compound 5]
### Response 88.3

### Prompt Next entry: CC1(C)C(=O)N(Cl)C(C)(C)N1Cl [Compound 1]
### Response 95.1

* * *

# Test name: Laboratory stability in halogen demand-free water (DFW), iodometric titration
# Format: physicochemical
# Reported conditions: demand-free water, pH 7
Quantity: remaining at 1008 h (%)
Numbers only here, please. The scale is %.

### Prompt Name the recorded remaining at 1008 h for `CC1(C)C(=O)N(Cl)C(C)(C)N1Cl` .
### Response 83.4

### Prompt Next entry: `CC1(C)C(=O)N(Cl)C(C)(C)N1Br`
### Response 7.6
